assay: Human HepG2 cell viability assay in 384 well format; type: toxicity, cell-based; parameters: dose 125 nL, time 70.5 hour; concentration not given beside the values; settings: HepG2 cells, read-out: Inhibition
measurementName: cytotoxicity at 70.5 h (%)
Give bare numbers, in %.

Answered cases to consult:
>  <molecule>
O=C1NC2(CCN(Cc3ccccc3Cl)CC2)CC1c1ccccc1 (stereo unspecified)

>  <scaleUnit>
%

>  <cytotoxicity at 70.5 h>
-9.33

$$$$
>  <molecule>
CCOC(=O)c1ccc(CNC(=O)c2ccon2)o1

>  <scaleUnit>
%

>  <cytotoxicity at 70.5 h>
14.2

$$$$
>  <molecule>
Fc1ccccc1CN1CCCC(NC2CCOCC2)C1 (stereo unspecified)

>  <scaleUnit>
%

>  <cytotoxicity at 70.5 h>
-9.48

$$$$
>  <molecule>
O=C(c1cc(-c2cccs2)nc2ccccc12)N1CCN(CCO)CC1

>  <scaleUnit>
%

>  <cytotoxicity at 70.5 h>
0.548

$$$$
>  <molecule>
Cc1ccn(-c2ccc(C(=O)N3CCCC(n4ccnc4)C3)cc2)n1 (stereo unspecified)

>  <scaleUnit>
%

>  <cytotoxicity at 70.5 h>
-22.3

$$$$

Hey, can you go through the list below and give me cytotoxicity at 70.5 h for every item?
1. Cn1cc(CN2C[C@@H]3CN(Cc4ccoc4)CCO[C@@H]3C2)cn1
2. O=C(Cc1ccsc1)N1CCC(c2noc(-c3cccnc3)n2)CC1

1. -3.44
2. -2.37
